biological target: BaF3 cell lines stably transfected with kinase EGFR Del/T790M (Homo sapiens, UniProt P00533, T790M, cells depend on it, form not given); test: Growth inhibition of BaF3 cell line stably transfected with kinase EGFR Del/T790M (MTS); assay type: cell-based; conditions: 48 h, read-out: growth inhibitory activity IC50, Del/T790M
Sequence (P00533 with tags, fused parts or gaps DEL746-750/T790M, form open): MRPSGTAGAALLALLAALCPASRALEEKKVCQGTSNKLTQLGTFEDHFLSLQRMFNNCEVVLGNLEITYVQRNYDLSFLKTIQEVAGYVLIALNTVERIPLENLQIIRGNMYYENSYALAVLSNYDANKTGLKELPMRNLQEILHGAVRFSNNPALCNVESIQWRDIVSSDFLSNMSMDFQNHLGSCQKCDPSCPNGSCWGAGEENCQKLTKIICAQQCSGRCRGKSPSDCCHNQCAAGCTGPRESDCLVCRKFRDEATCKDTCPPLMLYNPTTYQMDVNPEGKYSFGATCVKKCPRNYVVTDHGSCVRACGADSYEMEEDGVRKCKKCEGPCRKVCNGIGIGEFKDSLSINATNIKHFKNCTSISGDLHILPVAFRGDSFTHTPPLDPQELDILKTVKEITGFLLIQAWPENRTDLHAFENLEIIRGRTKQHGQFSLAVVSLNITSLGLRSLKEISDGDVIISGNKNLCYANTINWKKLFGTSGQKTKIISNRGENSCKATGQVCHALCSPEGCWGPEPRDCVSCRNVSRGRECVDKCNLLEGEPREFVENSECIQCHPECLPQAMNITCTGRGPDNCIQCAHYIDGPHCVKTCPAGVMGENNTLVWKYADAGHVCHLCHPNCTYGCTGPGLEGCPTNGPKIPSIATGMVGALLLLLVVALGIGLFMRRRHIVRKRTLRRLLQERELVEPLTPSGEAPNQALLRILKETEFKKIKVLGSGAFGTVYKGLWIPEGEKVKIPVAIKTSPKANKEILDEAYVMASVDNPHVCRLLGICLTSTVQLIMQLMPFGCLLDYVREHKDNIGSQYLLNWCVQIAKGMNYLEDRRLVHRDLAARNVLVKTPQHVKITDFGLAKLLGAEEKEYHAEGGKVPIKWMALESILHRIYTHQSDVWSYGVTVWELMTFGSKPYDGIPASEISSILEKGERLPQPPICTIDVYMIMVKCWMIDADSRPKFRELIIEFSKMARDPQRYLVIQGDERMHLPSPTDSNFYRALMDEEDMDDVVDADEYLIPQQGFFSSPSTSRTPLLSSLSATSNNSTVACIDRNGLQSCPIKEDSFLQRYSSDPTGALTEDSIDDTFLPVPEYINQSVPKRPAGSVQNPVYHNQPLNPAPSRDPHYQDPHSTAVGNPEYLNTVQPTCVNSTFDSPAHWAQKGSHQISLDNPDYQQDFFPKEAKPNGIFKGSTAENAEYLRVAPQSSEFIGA
measured.parameter: GI50

{"columns": ["molecule", "measured.parameter", "result"],
 "data": [
  ["C=Cc1cnc(Nc2cc(C(C)C)c(N3CCC(N4CCN(C)CC4)CC3)cc2OC)nc1Nc1ccc2nccnc2c1S(C)(=O)=O [III-11]", "GI50", "500 to 2500 nM"],
  ["C=Cc1cnc(Nc2ccc(N3CCC(N4CCN(C)CC4)CC3)c(CC)c2)nc1Nc1ccc2nccnc2c1N(C)S(C)(=O)=O [II-20]", "GI50", "≤ 50 nM"],
  ["C=Cc1cnc(Nc2cc(CC3CC3)c(N3CCC(N4CCN(C)CC4)CC3)cc2OC)nc1Nc1ccc2nccnc2c1S(=O)(=O)NC [IV-8]", "GI50", "50 to 500 nM"],
  ["CCc1cc(Nc2ncc(C=C(C)C)c(Nc3ccc4nccnc4c3P(C)(C)=O)n2)c(OC)cc1N1CCC(N2CCN(C)CC2)CC1 [Compound I-10]", "GI50", "500 to 2500 nM"],
  ["C=Cc1cnc(Nc2cc(C)n(C)n2)nc1Nc1ccc2nccnc2c1N(C)S(C)(=O)=O [II-62]", "GI50", "500 to 2500 nM"],
  ["C=Cc1cnc(Nc2cc(F)c(N3CCC(N4CCN(C)CC4)CC3)c(F)c2)nc1Nc1ccc2nccnc2c1S(C)(=O)=O [III-16]", "GI50", "50 to 500 nM"],
  ["C=C(C)c1cnc(Nc2cc(C3CC3)c(N3CCC(N4CCN(C)CC4)CC3)cc2OC)nc1Nc1ccc2nccnc2c1N(C)S(C)(=O)=O [II-23]", "GI50", "≤ 50 nM"],
  ["C=C(C)c1cnc(Nc2cnn(C)c2)nc1Nc1ccc2nccnc2c1N(C)S(C)(=O)=O [II-71]", "GI50", "≤ 50 nM"],
  ["C=Cc1cnc(Nc2cc(CC)c(N3CCC(N4CCN(C)CC4)CC3)cc2OC)nc1Nc1ccc2nccnc2c1N(C)S(=O)(=O)C1CC1 [II-11]", "GI50", "≤ 50 nM"],
  ["C=Cc1cnc(Nc2cnn(CC)c2)nc1Nc1ccc2nccnc2c1N(C)S(C)(=O)=O [II-66]", "GI50", "500 to 2500 nM"],
  ["C=Cc1cnc(Nc2cc(CC3CC3)c(N3CCC(N4CCN(C)CC4)CC3)cc2OC)nc1Nc1ccc2nccnc2c1NS(C)(=O)=O [II-37]", "GI50", "≤ 50 nM"],
  ["C=Cc1cnc(Nc2cc(CC)c(N3CCC(N4CCN(C)CC4)CC3)cc2OC(F)(F)F)nc1Nc1ccc2nccnc2c1S(C)(=O)=O [III-5]", "GI50", "500 to 2500 nM"],
  ["C=C(C)c1cnc(Nc2ccc(N3CCC(N4CCN(C)CC4)CC3)nc2OC)nc1Nc1ccc2nccnc2c1P(C)(C)=O [Compound I-19]", "GI50", "50 to 500 nM"],
  ["C=Cc1cnc(Nc2cc(CC)c(N3CCN(C)CC3)cc2OC)nc1Nc1ccc2nccnc2c1S(C)(=O)=O [III-4]", "GI50", "500 to 2500 nM"]
]}

====

target: BaF3 cell lines stably transfected with kinase EGFR L858R/T790M/C797S (Homo sapiens, UniProt P00533, T790M/C797S/L858R, cells depend on it); assay: Growth inhibition of BaF3 cell line stably transfected with kinase EGFR L858R/T790M/C797S (MTS); format: cell-based; settings: 48 h, read-out: growth inhibitory activity IC50, L858R/T790M/C797S
Sequence (P00533 whole entry T790M/C797S/L858R): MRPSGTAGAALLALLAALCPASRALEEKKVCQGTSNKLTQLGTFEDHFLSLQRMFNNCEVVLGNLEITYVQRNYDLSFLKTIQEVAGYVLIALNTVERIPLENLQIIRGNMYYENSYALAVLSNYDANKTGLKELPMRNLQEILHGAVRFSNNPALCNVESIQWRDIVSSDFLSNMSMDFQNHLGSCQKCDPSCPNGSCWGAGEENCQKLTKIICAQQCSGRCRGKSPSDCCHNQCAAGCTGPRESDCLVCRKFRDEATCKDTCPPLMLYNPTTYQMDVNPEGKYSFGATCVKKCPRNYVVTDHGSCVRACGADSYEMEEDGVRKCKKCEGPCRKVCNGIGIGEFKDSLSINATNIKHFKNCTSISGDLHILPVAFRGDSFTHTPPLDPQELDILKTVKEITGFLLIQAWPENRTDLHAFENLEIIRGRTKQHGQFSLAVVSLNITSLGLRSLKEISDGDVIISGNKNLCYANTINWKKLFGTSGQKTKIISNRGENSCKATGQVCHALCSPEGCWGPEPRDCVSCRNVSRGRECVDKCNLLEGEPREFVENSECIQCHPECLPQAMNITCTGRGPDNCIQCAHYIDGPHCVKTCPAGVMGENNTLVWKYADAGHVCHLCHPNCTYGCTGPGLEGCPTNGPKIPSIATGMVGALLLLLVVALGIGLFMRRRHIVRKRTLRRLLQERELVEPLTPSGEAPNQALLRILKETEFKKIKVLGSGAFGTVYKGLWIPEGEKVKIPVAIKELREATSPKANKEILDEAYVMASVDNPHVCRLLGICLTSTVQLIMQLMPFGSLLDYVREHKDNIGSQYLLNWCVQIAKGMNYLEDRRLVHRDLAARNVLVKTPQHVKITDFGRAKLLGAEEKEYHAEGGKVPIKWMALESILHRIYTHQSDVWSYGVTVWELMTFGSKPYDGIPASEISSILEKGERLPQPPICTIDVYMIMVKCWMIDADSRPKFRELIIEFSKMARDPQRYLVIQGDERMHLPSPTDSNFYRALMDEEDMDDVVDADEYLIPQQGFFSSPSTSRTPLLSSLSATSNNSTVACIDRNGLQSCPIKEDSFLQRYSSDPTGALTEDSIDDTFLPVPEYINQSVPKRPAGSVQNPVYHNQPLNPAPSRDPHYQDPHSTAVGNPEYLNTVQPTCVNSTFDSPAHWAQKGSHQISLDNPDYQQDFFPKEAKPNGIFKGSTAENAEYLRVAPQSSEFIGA

{"columns": ["compound", "GI50"],
 "data": [
  ["C=Cc1cnc(Nc2cc(CC)c(N3CCC(N4CCN(C)CC4)CC3)cc2OC)nc1Nc1ccc2nccnc2c1S(=O)(=O)NC(C)C", "500 to 2500 nM"],
  ["C=Cc1cnc(Nc2cn(CC)nc2C)nc1Nc1ccc2nccnc2c1N(C)S(C)(=O)=O [II-67]", "50 to 500 nM"],
  ["C=Cc1cnc(Nc2cc(CC)c(N3CCC(N4CCN(C)CC4)CC3)cc2OC)nc1Nc1ccc2nccnc2c1S(=O)(=O)C(C)C", "50 to 500 nM"],
  ["C=Cc1cnc(Nc2cc(C(C)C)c(N3CCC(N4CCN(C)CC4)CC3)cc2OC)nc1Nc1ccc2nccnc2c1S(C)(=O)=O", "500 to 2500 nM"],
  ["CCc1cc(Nc2ncc(C3=CCCC3)c(Nc3ccc4nccnc4c3P(C)(C)=O)n2)c(OC)cc1N1CCC(N2CCN(C)CC2)CC1", "50 to 500 nM"],
  ["C=Cc1cnc(Nc2cc(Cc3ccccc3)c(N3CCC(N4CCN(C)CC4)CC3)cc2OC)nc1Nc1ccc2nccnc2c1N(C)S(C)(=O)=O", "50 to 500 nM"],
  ["C=Cc1cnc(Nc2cc(CC)c(N(C)CCN(C)C)cc2OC)nc1Nc1ccc2nccnc2c1N(C)S(C)(=O)=O", "50 to 500 nM"],
  ["CCc1cc(Nc2ncc(C3=CCCC3)c(Nc3ccc4nccnc4c3N(C)S(C)(=O)=O)n2)c(OC)cc1N1CCC(N2CCN(C)CC2)CC1", "500 to 2500 nM"],
  ["C=Cc1cnc(Nc2cc(CC)c(N3CCC(C(C)C)C3)cc2OC)nc1Nc1ccc2nccnc2c1P(C)(C)=O (stereo not drawn)", "≤ 50 nM"],
  ["C=Cc1cnc(Nc2cc(C)n(C)n2)nc1Nc1ccc2nccnc2c1N(C)S(C)(=O)=O", "50 to 500 nM"],
  ["C=Cc1cnc(Nc2cc(CC)c(N3CCC(N4CCN(C)CC4)CC3)cc2OC(F)(F)F)nc1Nc1ccc2nccnc2c1N(C)S(C)(=O)=O", "50 to 500 nM"],
  ["C=Cc1cnc(Nc2ccn(C(C)C)n2)nc1Nc1ccc2nccnc2c1N(C)S(C)(=O)=O", "50 to 500 nM"],
  ["C=C(C)c1cnc(Nc2cnn(C)c2)nc1Nc1ccc2nccnc2c1N(C)S(C)(=O)=O", "50 to 500 nM"],
  ["C=Cc1cnc(Nc2cc(C)c(N3CCC(N4CCN(C)CC4)CC3)cc2OC)nc1Nc1ccc2nccnc2c1S(=O)(=O)C(C)C", "50 to 500 nM"],
  ["C=Cc1cnc(Nc2cc(CC)c(N3CCC(N(C)C)C3)cc2OC)nc1Nc1ccc2nccnc2c1NS(C)(=O)=O (stereo not drawn)", "≤ 50 nM"]
]}

====

molecular target: BaF3 cell lines stably transfected with kinase EGFR L858R/T790M/C797S (Homo sapiens, UniProt P00533, T790M/C797S/L858R, cells depend on it); test: Growth inhibition of BaF3 cell line stably transfected with kinase EGFR L858R/T790M/C797S (MTS); type: cell-based; details: 48 h, read-out: growth inhibitory activity IC50, L858R/T790M/C797S
Entries and their measured GI50 follow.
measured.parameter: GI50

{"columns": ["compound", "measured.parameter", "result"],
 "data": [
  ["CCc1cc(Nc2ncc(/C=C/C3CC3)c(Nc3ccc4nccnc4c3P(C)(C)=O)n2)c(OC)cc1N1CCC(N2CCN(C)CC2)CC1", "GI50", "0.05 to 0.5 µM"],
  ["C=Cc1cnc(Nc2cc(CC)c(N3CCC(N4CCN(C)CC4)CC3)cc2OC)nc1Nc1ccc2nccnc2c1N(C)S(=O)(=O)C1CC1", "GI50", "0.05 to 0.5 µM"],
  ["C=Cc1cnc(Nc2cc3c(cc2C)CCN(C)C3)nc1Nc1ccc2nccnc2c1N(C)S(C)(=O)=O", "GI50", "≤ 0.05 µM"],
  ["C=Cc1cnc(Nc2cc[nH]n2)nc1Nc1ccc2nccnc2c1N(C)S(C)(=O)=O", "GI50", "0.5 to 2.5 µM"],
  ["C=Cc1cnc(Nc2ccc3c(c2)C(C)CN(C)CC3)nc1Nc1ccc2nccnc2c1N(C)S(C)(=O)=O (stereo not shown)", "GI50", "≤ 0.05 µM"],
  ["C=C(C)c1cnc(Nc2cc(CC)c(N3CCC(N4CCN(C)CC4)CC3)cc2OC)nc1Nc1ccc2nccnc2c1P(C)(C)=O", "GI50", "≤ 0.05 µM"],
  ["C=Cc1cnc(Nc2cc(C)c(N3CCC(N4CCN(C)CC4)CC3)cc2OC)nc1Nc1ccc2nccnc2c1NS(C)(=O)=O", "GI50", "≤ 0.05 µM"]
]}

====

Target: BaF3 cell lines stably transfected with kinase EGFR L858R/T790M (Homo sapiens, UniProt P00533, T790M/L858R, cells depend on it)
Sequence (P00533 whole entry T790M/L858R): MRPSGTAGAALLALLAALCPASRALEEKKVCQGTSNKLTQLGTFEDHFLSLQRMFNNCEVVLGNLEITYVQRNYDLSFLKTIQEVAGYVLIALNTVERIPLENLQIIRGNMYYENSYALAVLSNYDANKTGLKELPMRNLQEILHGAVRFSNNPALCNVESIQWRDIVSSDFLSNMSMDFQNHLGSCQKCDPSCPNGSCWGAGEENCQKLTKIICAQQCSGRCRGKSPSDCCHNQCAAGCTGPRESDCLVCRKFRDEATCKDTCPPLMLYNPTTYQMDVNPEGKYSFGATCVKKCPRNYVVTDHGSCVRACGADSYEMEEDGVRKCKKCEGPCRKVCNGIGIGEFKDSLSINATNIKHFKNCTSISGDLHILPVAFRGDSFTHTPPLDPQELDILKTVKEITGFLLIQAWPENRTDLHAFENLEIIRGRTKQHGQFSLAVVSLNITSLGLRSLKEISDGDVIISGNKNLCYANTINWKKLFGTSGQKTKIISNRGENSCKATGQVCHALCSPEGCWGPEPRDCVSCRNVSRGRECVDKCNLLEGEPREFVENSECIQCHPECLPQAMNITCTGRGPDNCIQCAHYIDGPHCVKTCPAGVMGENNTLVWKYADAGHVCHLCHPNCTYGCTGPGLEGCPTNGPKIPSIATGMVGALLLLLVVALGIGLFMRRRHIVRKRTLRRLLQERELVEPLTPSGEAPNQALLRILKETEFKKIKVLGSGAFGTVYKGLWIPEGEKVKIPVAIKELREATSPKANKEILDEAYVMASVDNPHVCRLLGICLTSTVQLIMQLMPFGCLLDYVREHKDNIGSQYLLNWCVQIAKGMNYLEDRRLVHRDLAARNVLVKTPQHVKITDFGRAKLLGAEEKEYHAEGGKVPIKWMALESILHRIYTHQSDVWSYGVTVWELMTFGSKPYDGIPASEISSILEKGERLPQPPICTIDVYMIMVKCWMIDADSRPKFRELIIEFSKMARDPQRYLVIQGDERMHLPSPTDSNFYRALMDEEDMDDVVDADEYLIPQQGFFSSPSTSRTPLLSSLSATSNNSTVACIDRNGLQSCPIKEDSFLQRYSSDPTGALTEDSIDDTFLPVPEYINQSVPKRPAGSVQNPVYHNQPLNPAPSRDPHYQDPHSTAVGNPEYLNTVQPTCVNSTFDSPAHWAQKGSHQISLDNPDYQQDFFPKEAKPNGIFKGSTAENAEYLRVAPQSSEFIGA
Assay: Growth inhibition of BaF3 cell line stably transfected with kinase EGFR L858R/T790M (MTS)
Type: cell-based
Conditions: 48 h, read-out: growth inhibitory activity IC50, L858R/T790M
Experimental: Biological Activity Assay: Growth Inhibitory Activity of Compounds on Cell Lines Stably Transfected with Kinase The activity of compounds against various mutants of kinase EGFR was evaluated by their effect of inhibiting growth of BaF3 cell lines stably transfected with kinase. […] 4) IC50 calculation: The semi-inhibitory concentration of the compounds acting on cells was calculated using GradPad Prism 5 software according to the measured cell growth inhibition rate.
GI50 values by entry
measured.parameter: GI50

{"columns": ["molecule", "measured.parameter", "result"],
 "data": [
  ["CCc1cc(Nc2ncc(/C=C/c3ccccc3)c(Nc3ccc4nccnc4c3N(C)S(C)(=O)=O)n2)c(OC)cc1N1CCC(N2CCN(C)CC2)CC1", "GI50", "500 to 2500 nM"],
  ["C=Cc1cnc(Nc2cc(C)c(N3CCC(N4CCN(C)CC4)CC3)cc2OC)nc1Nc1ccc2nccnc2c1P(C)(C)=O", "GI50", "≤ 50 nM"],
  ["C=Cc1cnc(Nc2cc(CC)c(N3CCC(N4CCN(C)CC4)CC3)cc2OC)nc1Nc1ccc2nccnc2c1N(CC)S(C)(=O)=O", "GI50", "≤ 50 nM"],
  ["C=Cc1cnc(Nc2cc(CC3CC3)c(N3CCC(N4CCN(C)CC4)CC3)cc2OC)nc1Nc1ccc2nccnc2c1P(C)(C)=O", "GI50", "≤ 50 nM"],
  ["C=Cc1cnc(Nc2cc3c(cc2C)CCN(C)C3)nc1Nc1ccc2nccnc2c1N(C)S(C)(=O)=O", "GI50", "50 to 500 nM"],
  ["C=Cc1cnc(Nc2cc(C3CC3)c(N3CCC(N4CCN(C)CC4)CC3)cc2OC)nc1Nc1ccc2nccnc2c1S(C)(=O)=O", "GI50", "50 to 500 nM"],
  ["C=Cc1cnc(Nc2cc(CC)c(N3CCC(N4CCN(C)CC4)CC3)cc2OC)nc1Nc1ccc2nccnc2c1S(=O)(=O)NC(C)C", "GI50", "50 to 500 nM"],
  ["C=Cc1cnc(Nc2cc(CC)c(NCCO)cc2OC)nc1Nc1ccc2nccnc2c1N(C)S(C)(=O)=O", "GI50", "50 to 500 nM"],
  ["C=Cc1cnc(Nc2cc(CC3CC3)c(N3CCC(N4CCN(C)CC4)CC3)cc2OC)nc1Nc1ccc2nccnc2c1N(C)S(C)(=O)=O", "GI50", "≤ 50 nM"],
  ["C=Cc1cnc(Nc2cc(CC)c(N3CCC(N4CCN(C)CC4)CC3)nc2OC)nc1Nc1ccc2nccnc2c1P(C)(C)=O", "GI50", "≤ 50 nM"],
  ["C=C(C)c1cnc(Nc2cc(C3CC3)c(N3CCC(N4CCN(C)CC4)CC3)cc2OC)nc1Nc1ccc2nccnc2c1N(C)S(C)(=O)=O", "GI50", "≤ 50 nM"],
  ["C=Cc1cnc(Nc2cn(CC)nc2C)nc1Nc1ccc2nccnc2c1N(C)S(C)(=O)=O [II-68]", "GI50", "500 to 2500 nM"],
  ["C=Cc1cnc(Nc2cc3c(cc2F)CCN(C)C3)nc1Nc1ccc2nccnc2c1N(C)S(C)(=O)=O", "GI50", "50 to 500 nM"],
  ["C=Cc1cnc(Nc2cc(C3CC3)c(N3CCC(N4CCN(C)CC4)CC3)cc2OC)nc1Nc1ccc2nccnc2c1NS(C)(=O)=O", "GI50", "50 to 500 nM"]
]}
